From: patent US10287255B2

target: human recombinant HDAC1 (Homo sapiens); assay: HDAC1 enzyme activity inhibition assay (in vitro, fluorimetric); settings: human recombinant HDAC1, fluorimetric kit, 30° C. 60 minutes
Sequence (Q13547 whole entry): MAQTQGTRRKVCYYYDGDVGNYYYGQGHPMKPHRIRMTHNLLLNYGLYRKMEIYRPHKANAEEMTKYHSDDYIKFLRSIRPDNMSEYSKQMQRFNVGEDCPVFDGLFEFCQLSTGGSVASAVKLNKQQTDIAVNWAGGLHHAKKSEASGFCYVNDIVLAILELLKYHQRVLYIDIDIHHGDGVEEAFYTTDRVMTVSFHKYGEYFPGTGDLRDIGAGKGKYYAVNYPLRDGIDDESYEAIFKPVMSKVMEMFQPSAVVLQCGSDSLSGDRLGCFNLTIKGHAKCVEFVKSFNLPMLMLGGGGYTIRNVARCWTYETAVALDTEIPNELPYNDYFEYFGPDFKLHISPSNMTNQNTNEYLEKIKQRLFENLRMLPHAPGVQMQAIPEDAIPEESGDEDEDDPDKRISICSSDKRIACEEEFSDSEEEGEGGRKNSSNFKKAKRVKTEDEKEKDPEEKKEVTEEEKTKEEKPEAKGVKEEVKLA
Labelling: IC50 reported below 6 µM becomes YES; at or above becomes NO.

In: Strictly below 6 µM: is that where IC50 of C[C@@H]1CN(Cc2ccc(C(=O)NO)cc2)C[C@H](C)N1Cc1ccc2ccccc2c1 sits?
Out: NO

In: Does this compound meet the criterion IC50 < 6 µM? CC(C)N1C[C@@H](C)N(Cc2ccc(C(=O)NO)cc2)[C@@H](C)C1
Out: NO

In: Is it true that IC50 reported for CC(=O)N1CCN(Cc2ccc(CN3[C@H](C)CN(Cc4ccc(C(=O)NO)cc4)C[C@@H]3C)cc2)CC1 is less than 6 µM?
Out: NO

In: Determine if C[C@@H]1CN(Cc2ccc(C(=O)NO)cc2)C[C@H](C)N1Cc1cccc(CN2CCN(S(C)(=O)=O)CC2)c1 shows IC50 strictly lower than 6 µM.
Out: NO

In: Dear reviewer, please state whether C[C@@H]1CN(CC2CCC(C(=O)NO)CC2)C[C@H](C)N1Cc1ccccc1 (stereo partly drawn) has IC50 strictly beneath 6 µM.
Out: NO

In: Would you kindly verify if IC50 of C[C@@H]1CN(Cc2ccc(C(=O)NO)cc2)C[C@H](C)N1C(=O)c1ccccc1-c1ccoc1 is strictly less than 6 µM?
Out: YES

In: Strictly below 6 µM in IC50? C[C@@H]1CN(C(=O)c2ccccc2C2=CCC(C)(C)CC2)C[C@H](C)N1Cc1ccc(C(=O)NO)cc1
Out: NO

In: Here's an entry: C[C@@H]1CN(C(=O)c2ccccn2)C[C@H](C)N1Cc1ccc(C(=O)NO)cc1 . Is its IC50 below 6 µM?
Out: NO

In: I wonder whether C[C@@H]1CN(Cc2ccccc2)C[C@H](C)N1Cc1ccc(C(=O)NO)cc1 has IC50 below 6 µM. Can you tell?
Out: NO

In: Is the reported IC50 for C[C@@H]1CN(Cc2ccc(N(C)C)cc2)C[C@H](C)N1Cc1ccc(C(=O)NO)cc1 strictly below 6 µM?
Out: YES

In: Please state whether IC50 is below 6 µM for C[C@@H]1CN(Cc2ccc(-c3cccs3)cc2)C[C@H](C)N1Cc1ccc(C(=O)NO)cc1
Out: YES

In: State whether 6 µM exceeds IC50 recorded for C[C@@H]1CN(Cc2ccc(C(=O)NO)c(O)c2)C[C@H](C)N1Cc1ccccc1 .
Out: NO

In: I'd appreciate it if you could check whether CCN1[C@H](C)CN(Cc2ccc(C(=O)NO)cc2)C[C@@H]1C has IC50 smaller than 6 µM.
Out: NO

In: Report whether reported IC50 is lower than 6 µM (strictly) for CC(C)CC(=O)N1[C@H](C)CN(Cc2ccc(C(=O)NO)cc2)C[C@@H]1C
Out: YES
